# melting point per record follows

Query: Tell us which melting point value is on record for O=c1c2c[nH]cc(-c3ccccc3)c-2nn1-c1ccccc1
Response: 280 to 285 °C

Query: Tell us which melting point value is on record for OCCNc1c2c(nc3cn[nH]c13)CCCC2
Response: 205 to 210 °C

Query: Tell us which melting point value is on record for CCOC(=O)Cn1ccc2ccc3c(c21)CCN(C(=O)OC(C)(C)C)CC3
Response: 111 to 115 °C

Query: Tell us which melting point value is on record for Cc1nc2c3c(c(C(=O)N(C)C)cc2n1C)CC[C@@H](c1ccccc1)O3
Response: 227 to 228 °C

Query: Tell us which melting point value is on record for COc1cc2c(cc1OC)C(c1ccccc1)N(C(=O)NCCN(C)C)CC2 (configuration not stated)
Response: 60 °C

Query: Tell us which melting point value is on record for CCOC(=O)c1cn(CC)c2c(F)c(C)c(F)cc2c1=O
Response: 147 to 150 °C

Query: Tell us which melting point value is on record for N#CNc1cccc2ccccc12
Response: 132 to 133 °C

Query: Tell us which melting point value is on record for CCc1n[nH]c(CC)c1CCCCCCOc1ccc([N+](=O)[O-])cc1Cl
Response: 130 to 132 °C

Query: Tell us which melting point value is on record for CN(C(c1ccccc1)c1ccccc1)S(=O)(=O)CC(N)=O
Response: 110 to 115 °C

Query: Tell us which melting point value is on record for CCCCc1c(C(C)C)nc(C(C)C)c(C(C)O)c1-c1ccc(F)cc1 (configuration not stated)
Response: 103 to 104 °C

Query: Tell us which melting point value is on record for CCCc1cc(Cl)c(OC(=S)N(C)C)c(C(C)=O)c1OC(C)=O
Response: 86 to 88 °C

* * *

endpoint: melting point

Known results for compounds:
Query: Tell us which melting point value is on record for FC(F)(F)c1ccc(/C=C/c2nc(COc3ccc(-c4nc(Cn5ccnn5)co4)cc3)cs2)cc1
Response: 179 to 181 °C

Query: Tell us which melting point value is on record for O=C(NCc1ccc(Cl)cc1)c1cnc2c(F)c(Oc3ccc(CO)cc3)c(F)cc2c1O
Response: 235 to 240 °C

Query: Tell us which melting point value is on record for COCCNC(=O)c1ccc(C)c(-n2c(C)cc(OCc3ccccc3CNC(=O)Nc3cc(C(C)(C)C)nn3-c3ccc(O)c(Cl)c3)c(Cl)c2=O)c1
Response: 179 to 180 °C

Query: Tell us which melting point value is on record for CC1=C(C(=O)OCCOc2ccccc2)C(c2ccccc2C(F)(F)F)c2c(ccnc2OC(C)C)N1 (stereo not given)
Response: 110 to 113 °C

Now consider the entry below.
Query: Tell us which melting point value is on record for COC(=O)c1cc([N+](=O)[O-])ccc1OC(C)=O
Response: 70 to 72 °C

* * *

endpoint: melting point

Query: Tell us which melting point value is on record for O=C(O)c1nc(-c2ccc(Cl)cc2Cl)n(-c2ccc(Cl)cc2)c1Br
Response: 205 to 207 °C

Query: Tell us which melting point value is on record for CC(C)[Si]1(C(C)C)C([Si](C)(C)C)=C(c2ccccc2)C(c2ccccc2)=C1[Si](C)(C)C
Response: 107 °C

Query: Tell us which melting point value is on record for COC(=O)C1=C(C)NC(N)=C(C(=O)OC(C)C)C1c1cccc([N+](=O)[O-])c1 (stereo unspecified)
Response: 167 °C

Query: Tell us which melting point value is on record for COC(=O)C(C)Oc1ccc(Oc2ccc(Cl)cc2F)cc1 (stereo unspecified)
Response: 55 to 57 °C

Query: Tell us which melting point value is on record for CN[C@@H]1Cc2cccc3[nH]c(=S)n(c23)C1
Response: 210 to 213 °C

Next:
Query: Tell us which melting point value is on record for C=C(C)C(=O)Oc1ccc(NS(C)(=O)=O)c(C)c1
Response: 95 to 97 °C

Query: Tell us which melting point value is on record for COC(=O)c1ccc(CBr)cc1O
Response: 73 to 75 °C

Query: Tell us which melting point value is on record for CCCCCCCCCCOc1ccc(Br)cc1OCCCCCCCCCC
Response: 39.5 to 40 °C

Query: Tell us which melting point value is on record for CCC(O)(CC)Cc1ccc(N)cc1
Response: 85 to 86 °C

Query: Tell us which melting point value is on record for COc1ccc(-n2nc(CCC(=O)NCC(=O)O)cc2-c2ccc(Cl)cc2)cc1
Response: 186 to 188 °C

Query: Tell us which melting point value is on record for Cc1ccc(OCC(=O)c2ccccc2)cc1
Response: 65 °C

* * *

# melting point per record follows

Query: Tell us which melting point value is on record for CC(c1oc2ccccc2c(=O)c1-c1ccccc1)n1nc(-c2cccc(O)c2)c2c(N)ncnc21 (stereo unspecified)
Response: 212 to 216 °C

Next:
Query: Tell us which melting point value is on record for Cc1ccc(C)c(C(CO)c2ccc(C(C)C)cc2)c1O (stereo unspecified)
Response: 88 to 89 °C

Query: Tell us which melting point value is on record for O=c1cc(O)c2c([nH]1)CCCCC2
Response: > 270 °C

* * *

# melting point per record follows

Known results for compounds:
Query: Tell us which melting point value is on record for COC(=O)C1=C(C)NC(CO)=C(C(=O)OC)C1c1ccccc1[N+](=O)[O-] (configuration not stated)
Response: 164 to 165 °C

Query: Tell us which melting point value is on record for COc1ccc(Cn2cc3nc(Cl)nc(-c4c(F)cccc4OC)c3n2)cc1
Response: 180 to 181 °C

Query: Tell us which melting point value is on record for O=C(O)[C@@H]1CCCN1C(=O)C(CS)CS
Response: 138 to 140 °C

Next:
Query: Tell us which melting point value is on record for CC(=O)OC1C(N2CCCCC2)CC2C3CCC4CCC(=O)CC4(C)C3CCC21C (configuration not stated)
Response: 165 to 167 °C

Query: Tell us which melting point value is on record for CC(=O)N1CCN(c2ccc(Nc3nccc(-c4sc(Nc5ccccc5)nc4C)n3)cc2)CC1
Response: 245 to 246 °C

Query: Tell us which melting point value is on record for CC(C)Cc1ccc2oc(=O)c(=O)oc2c1
Response: 92 to 97 °C

Query: Tell us which melting point value is on record for O=C(NCC(F)(F)F)c1ccc(C=NO)cc1
Response: 153 to 154 °C

Query: Tell us which melting point value is on record for N[C@@H]1C[C@H]2c3ccccc3-c3cccc(c32)NC1=O (relative stereo)
Response: 104 to 107 °C

Query: Tell us which melting point value is on record for CC(CSC(=S)c1ccccc1)C(=O)N1CCCC1C(=O)O (configuration not stated)
Response: 157 to 158 °C

Query: Tell us which melting point value is on record for CN(C)C(=O)Sc1cc(SC(=O)N(C)C)cc(C(N)=O)c1
Response: 264 to 265 °C

* * *

endpoint: melting point

Query: Tell us which melting point value is on record for CC(CS)C(=O)NC(CC(N)=O)C(=O)O (stereo not given)
Response: 181 °C

Query: Tell us which melting point value is on record for O=C1CCC(c2ccc(OC3CCN(C4CCC4)CC3)cc2F)=NN1
Response: > 300 °C

Query: Tell us which melting point value is on record for CC(=O)N1c2ccc(-c3ccc(CN4CCCCC4)cc3)cc2C(Nc2ccc(F)cc2)CC1C (stereo not given)
Response: 106 °C

Next:
Query: Tell us which melting point value is on record for COc1cc(OC)c(-c2ccc(C)s2)cc1C=CC(=O)c1ccc(C(=O)O)cc1
Response: 213 to 215 °C

Query: Tell us which melting point value is on record for CN(C)C=C1CN=C(c2ccccc2Cl)c2ccccc2C1=O
Response: 155 to 157 °C

Query: Tell us which melting point value is on record for C=CCc1c(O)c(=O)[nH]c2cc(Cl)ccc2c1=O
Response: 172 to 174 °C

Query: Tell us which melting point value is on record for CCNC(=S)N(C)c1cn(-c2cccnc2)nc1Cl
Response: 160 to 162 °C

Query: Tell us which melting point value is on record for CC(=O)Oc1ccc(Oc2ccc(NC(=O)Nc3cc(C(C)(C)C)on3)cc2)cc1
Response: 146 °C

Query: Tell us which melting point value is on record for CCOP(=O)(Cc1cccc(NC(=O)C2=Cc3cc(C4CCCCC4)ccc3CC2)c1)OCC
Response: 54 to 56 °C

* * *

# melting point per record follows

Query: Tell us which melting point value is on record for c1ccc(N2CCOCC2)c(N=C2CCCCN2)c1
Response: 89 to 90 °C

Query: Tell us which melting point value is on record for O=c1cc(CO)oc2cc(S)ccc12
Response: 139 to 140 °C

Query: Tell us which melting point value is on record for ClCOc1ccc(-c2ccccc2)cc1
Response: 67 to 70 °C

Query: Tell us which melting point value is on record for CCn1c2ccccc2c2c3c(c(-c4ccccc4Cl)cc21)C(O)NC3=O (stereo unspecified)
Response: 232 to 236 °C

Query: Tell us which melting point value is on record for O=C(O)Cc1ccc(OCc2c(Cl)cccc2C(=O)O)cc1
Response: 171 to 173 °C

Query: Tell us which melting point value is on record for CC(C)c1ccc(C(=O)c2ccc(CC(=O)O)n2C)cc1
Response: 98 to 101 °C
